target: DLG4_3, P78352; assay: holdup assay; parameters: key: below the threshold = too weak to quantify, mostly under pKd 3.1 to 4; conditions: plain residues with an end cap or a label only (N-terminal biotin on a linker: ttds)
Sequence (P78352 306-403): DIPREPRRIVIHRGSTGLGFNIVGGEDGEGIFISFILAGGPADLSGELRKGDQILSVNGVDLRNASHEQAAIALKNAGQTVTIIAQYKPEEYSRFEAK
observation-type: pKd

binder: HIVEALETDV [PBK, Q96KB5]
observed-measurement: below the threshold

binder: SEKHFRETEV [HTLV1-TAX1, P03409]
observed-measurement: 5.34

binder: LCALPKVTTV [AGMAT, Q9BSE5]
observed-measurement: 4.23

binder: RTRQRNETQV [HPV51-E6, P26554]
observed-measurement: 4.75

binder: DPRNTQTSQI [ABRAXAS2, Q15018]
observed-measurement: below the threshold

Now for a further binder.
stdin: # pKd lookup, item VNKVWDQSSV [CIT, O14578]
stdout: 3.62

Hello, the source for this data is paper PMC9482650, in case you need it.
